The origin of these recorded values is ChEMBL document CHEMBL1140224.

- assayed-system: Perforin-1 (Homo sapiens) (UniProt P14222)
- Sequence (whole entry): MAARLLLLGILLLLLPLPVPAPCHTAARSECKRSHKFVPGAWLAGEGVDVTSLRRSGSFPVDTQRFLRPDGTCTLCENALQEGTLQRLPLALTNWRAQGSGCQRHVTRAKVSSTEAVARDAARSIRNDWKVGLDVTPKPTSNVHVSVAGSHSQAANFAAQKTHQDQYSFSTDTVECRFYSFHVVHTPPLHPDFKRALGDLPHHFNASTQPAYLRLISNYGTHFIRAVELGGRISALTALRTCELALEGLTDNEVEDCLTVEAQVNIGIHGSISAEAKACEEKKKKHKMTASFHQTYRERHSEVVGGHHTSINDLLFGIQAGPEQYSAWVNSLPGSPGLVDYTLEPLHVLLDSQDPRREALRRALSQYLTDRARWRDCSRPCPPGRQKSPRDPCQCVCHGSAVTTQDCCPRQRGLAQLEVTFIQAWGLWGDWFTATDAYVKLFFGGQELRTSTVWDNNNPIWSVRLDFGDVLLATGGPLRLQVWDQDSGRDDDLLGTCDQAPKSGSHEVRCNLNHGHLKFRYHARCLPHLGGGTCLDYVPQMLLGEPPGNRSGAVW
- test-details: Inhibition of human KHYG-1 NK cells delivered perforin-mediated death of human K562 cells upto 20 uM preincubated for 20 mins with KHYG-1 cells measured after 30 mins by 51Cr release assay
- Assay type: cell-based
- measurement-context: in the assay text read “measured after 4 hrs” for “measured after 30 mins”
inhibition reference

# chemical-structure, assayed-system, inhibition (%)
records = [
    ("Cc1cc2c(c(=O)[nH]1)C(=O)O/C2=C\\c1cc2ccccc2s1", "Perforin-1 (Homo sapiens) (UniProt P14222)", 65),
    ("Cc1cc2c(c(=S)[nH]1)C(=O)O/C2=C\\c1csc2ccccc12", "Perforin-1 (Homo sapiens) (UniProt P14222)", 63),
    ("Cc1cc2c(c(=S)[nH]1)C(=O)O/C2=C\\c1cc2ccccc2[nH]1", "Perforin-1 (Homo sapiens) (UniProt P14222)", 95),
    ("Cc1cc2c(c(=S)[nH]1)C(=O)O/C2=C\\c1ccc(-c2ccccc2)s1", "Perforin-1 (Homo sapiens) (UniProt P14222)", 100),
    ("Cc1cc2c(c(=S)[nH]1)C(=O)O/C2=C\\c1ccc(C)o1", "Perforin-1 (Homo sapiens) (UniProt P14222)", 50),
    ("COc1ccc2oc(/C=C3\\OC(=O)c4c3cc(C)[nH]c4=S)cc2c1", "Perforin-1 (Homo sapiens) (UniProt P14222)", 100),
]
